# Target Under Test: T1, MLL3 ePHD6 E1097A (human, UniProt Q8NEZ4 1055-1144, E1097A)
# T1 sequence: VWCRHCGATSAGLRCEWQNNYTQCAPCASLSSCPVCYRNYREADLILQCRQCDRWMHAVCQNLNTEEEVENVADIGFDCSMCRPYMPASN
# Method: ITC
Readout: pKd
Quick note: pKd means taking -log10 of the concentration in moles per liter.

**Query** Which pKd value is on record for GKGGAKRHRKV [histone H4 peptide H4_(11–21)] ?
**Result** 4.19

Ref: paper PMC6318328
